Below, each entry is listed alongside its reported glycan array binding signal (z-score).
Tested System: Neu5Gc(a2-3)Gal(b1-3)[Fuc(a1-4)]GlcNAc
Experimental Protocol: glycan array binding signal (z-score within array); higher = stronger binding
Assay Context: glycan notation: IUPAC condensed, linker removed
The sample as a whole holds a higher share of the strongest signals than the screen did.
Could you respond with only the numeric value?

These solved cases illustrate the format of a correct answer.
Q: Return the recorded glycan array binding signal (z-score) value; entry: Arath Fbox LD (Arabidopsis thaliana) (protein) EFSVWLEKASGKRCLMLSAMNLSIIWGDNPQYWQWIPIPESRFEKVAKLRDVCWFEIRGRTNTRVLSPRTRYSAYIVFKGVDKCYGFQNVAIEAAVGVVGQEPSRRLICFSEAIRRGRRNVVKPKQREDGWMEIELGEFFNDGGIMDNDEIEMSALETKQLNRKCGLIIQGIEIRPAKILAAASFLEQKLISEEDLNSAVDHHHHHH
A: -0.502

Q: Return the recorded glycan array binding signal (z-score) value; entry: Gal 8 (Homo sapiens), O00214_1 (protein) MMLSLNNLQNIIYNPVIPFVGTIPDQLDPGTLIVIRGHVPSDADRFQVDLQNGSSMKPRADVAFHFNPRFKRAGCIVCNTLINEKWGREEITYDTPFKREKSFEIVIMVLKDKFQVAVNGKHTLLYGHRIGPEKIDTLGIYGKVNIHSIGFSFSSDLQSTQASSLELTEISRENVPKSGTPQLRLPFAARLNTPMGPGRTVVVKGEVNANAKSFNVDLLAGKSKDIALHLNPRLNIKAFVRNSFLQESWGEEERNITSFPFSPGMYFEMIIYCDVREFKVAVNGVHSLEYKHRFKELSSIDTLEINGDIHLLEVRSW
A: -0.233

Next binder, please.
Q: Return the recorded glycan array binding signal (z-score) value; entry: Tap1 (Sordaria macrospora), Q50IV4 (protein) MSHHHHHHHHYTLHLRLINDTSDTLTLVEQTSWWGKNTIWSQVRSTGVHVLSMAASGSSGMLRFQTSKGDFFAVAVGVHNYKRWCDVLVDTADEAPLTKLHPKYYDDKDAKYQALWAQASEFEAKSKSGKTVRIKFYQADGNVLRATVEYL
A: -0.24
